# System: OVCAR-8 ovarian
# MEASUREMENT PROTOCOL: NCI tumour cell line growth inhibition, 48 h
A collection of compounds and their measured TGI

• CC(=O)OC1CC2(C)C(=CC1C1SCCS1)CCC1C2CCC2(C)C(OC(C)=O)CCC12 (stereo not drawn) = > 100 µM
• CCCCCCc1ccc(CCCCCCCC(=O)O)o1 = > 100 µM

Asked: // fetch OVCAR-8 ovarian TGI for C[C@]12CCC(=O)C=C1C[C@@H](O)[C@@H]1[C@@H]2CC[C@@]2(C)[C@H]1CC[C@]2(C)O
Given back: > 100 µM

----------
A collection of compounds and their measured TGI
# Tested on: SNB-75 CNS
# MEASUREMENT PROTOCOL: NCI tumour cell line growth inhibition, 48 h
Where a SMILES comes first, the peptide text is derived from it. [ ]: non-standard residue; d: D form.

Below, each entry is followed by its recorded TGI result.
* O=c1c2cccnc2oc2c(Cl)cc(-c3nn[nH]n3)cc12 | > 100 µM
* CSc1nnnc2ccccc12 | > 100 µM

Asked: Could you share which TGI value was measured for CC(C)C[C@H](NC(=O)[C@H](CC(C)C)NC(=O)[C@@H](Cc1c[nH]c2ccccc12)NC(=O)[C@H](Cc1ccccc1)NC(=O)[C@@H](Cc1c[nH]c2ccccc12)NC(=O)[C@H](CCC(N)=O)NC(=O)[C@@H](CCC(N)=O)NC(=O)[C@@H]1CCCN1C(=O)[C@@H](CCCCN)NC(=O)[C@H]1CCCN1C(=O)[C@H](N)CCCN=C(N)N)C(N)=O (H-[dR][dP][dK]P[dQ]Q[dW]F[dW]LL-NH2) ?
Given back: > 100 µM

----------
# System: SK-MEL-2 melanoma
# MEASUREMENT PROTOCOL: NCI tumour cell line growth inhibition, 48 h
PROPERTY NAME: TGI

Asked: // fetch SK-MEL-2 melanoma TGI for Nc1nc(-c2ccc3c(c2)/C(=C\c2cc(Br)c(O)c(Br)c2)C(=O)N3)cs1
Given back: > 17.6 µM

Asked: // fetch SK-MEL-2 melanoma TGI for O=C1CCCC1CC(CN1CCOCC1)Sc1nnnn1-c1ccccc1 (centres undefined)
Given back: > 100 µM

Asked: // fetch SK-MEL-2 melanoma TGI for COc1cc(C2c3cccc4cccc(c34)C3CCC(=O)N32)cc(OC)c1O (centres undefined)
Given back: > 50 µM

Asked: // fetch SK-MEL-2 melanoma TGI for COC1(OC)CC(CO)(COc2cc(Cl)nc(N)n2)C1
Given back: > 100 µM

----------
# System: UACC-62 melanoma
# MEASUREMENT PROTOCOL: NCI tumour cell line growth inhibition, 48 h
PROPERTY NAME: TGI

Below, each entry is followed by its recorded TGI result.
- C[C@@H]1CC[C@@H]2[C@@H]1[C@H](OC(=O)/C=C/C1CCCCC1)[C@]1(C3CCCCC3)C[C@@H](OC(=O)CO)[C@@]2(C)O1: 26.8 µM
- CCOC(=O)C1=C(Nc2ccc(OC)cc2)C(N)=NC1=N: > 100 µM
- COc1cc2c3c(n(C)c(=O)c2cc1OC)-c1cc2c(cc1/C3=C\CCCCl)OCO2: > 100 µM
- NC1CC(=O)c2c(-c3cccs3)sc(-c3cccs3)c21 (configuration not stated): > 100 µM
- CCn1c(CCCc2nc3c([nH]2)c(=O)n(C)c(=O)n3C)nc2c1c(=O)n(C)c(=O)n2C: > 100 µM
- O=C(CSc1nc2ccc(I)cc2c(=O)n1Cc1ccccc1)Nc1ccccc1: > 100 µM

Turning to the following compound.
Asked: // fetch UACC-62 melanoma TGI for NS(=O)(=O)c1nnc(NS(=O)(=O)c2cccc3cccnc23)s1
Given back: > 100 µM

----------
A collection of molecules and their measured GI50
# Test system: OVCAR-4 ovarian
# MEASUREMENT PROTOCOL: NCI tumour cell line growth inhibition, 48 h

- NS(=O)(=O)c1ccc(-n2nc3c(c2-c2cccs2)Cc2ccccc2-3)cc1: 29.9 µM
- NC1CC(=O)c2c(-c3cccs3)sc(-c3cccs3)c21 (stereo not drawn): 43 µM

Turning to the following molecule.
Asked: Could you share which GI50 value was measured for CCCCCCCCN(CCCCCCCC)CC(O)c1cc(-c2ccccc2)nc2ccc(OC)cc12 (stereo not drawn) ?
Given back: 51 µM

----------
# Test system: RXF 393 renal
# MEASUREMENT PROTOCOL: NCI tumour cell line growth inhibition, 48 h
PROPERTY NAME: TGI

Below, each entry is followed by its recorded TGI result.
* N#CCCN(CCCCN(CCC#N)C(=O)Nc1ccccc1)C(=O)Nc1ccccc1 | > 100 µM
* c1ccc2c(c1)nnn2C1CCCCO1 (stereo not given) | > 100 µM
* C1=CC2C(C3CN(c4ccccc4)N=C13)C1C3C4C=CC21C=CC43 (stereo not given) | > 100 µM

Asked: // fetch RXF 393 renal TGI for [N-]=[N+]=Nc1cc(=O)[nH]c2ccccc12
Given back: > 100 µM

Asked: // fetch RXF 393 renal TGI for Cc1ccc2ccccc2c1CSc1nc(N)nc2c1ncn2CC(C)C
Given back: > 90.7 µM

----------
# System: SNB-19 CNS
# MEASUREMENT PROTOCOL: NCI tumour cell line growth inhibition, 48 h
Where a SMILES comes first, the peptide text is derived from it. [ ]: non-standard residue; d: D form.
PROPERTY NAME: TGI

Below, each entry is followed by its recorded TGI result.
* CN(C)C(=O)N1N[C@H](c2ccccc2)[C@@H]1c1ccccc1 | > 100 µM
* N#C/C(=C\c1ccc[nH]1)c1cc(-c2ccc(Cl)cc2)nn1-c1ccccc1 | > 56.9 µM
* CC12CCC(C1)C(C)(C)C2OC(=O)c1ccccc1N (configuration not stated) | 31.9 µM
* CC(C)C[C@H](NC(=O)[C@H](CC(C)C)NC(=O)[C@@H](Cc1c[nH]c2ccccc12)NC(=O)[C@H](Cc1ccccc1)NC(=O)[C@@H](Cc1c[nH]c2ccccc12)NC(=O)[C@H](CCC(N)=O)NC(=O)[C@@H](CCC(N)=O)NC(=O)[C@@H]1CCCN1C(=O)[C@@H](CCCCN)NC(=O)[C@H]1CCCN1C(=O)[C@H](N)CCCN=C(N)N)C(N)=O (H-[dR][dP][dK]P[dQ]Q[dW]F[dW]LL-NH2) | > 100 µM

Asked: Could you share which TGI value was measured for OC1OCC(COc2cc(Cl)c(Cl)cc2Cl)OC1O (configuration not stated) ?
Given back: > 100 µM

Asked: Could you share which TGI value was measured for CCCCCCCCCCCCCCNCC(OC)OC ?
Given back: 33.8 µM

Asked: Could you share which TGI value was measured for COc1cc(C2c3cccc4cccc(c34)C3CCC(=O)N32)cc(OC)c1O (configuration not stated) ?
Given back: > 50 µM

----------
A collection of molecules and their measured log10 TGI
# Tested on: NCI-H23 lung
# MEASUREMENT PROTOCOL: NCI tumour cell line growth inhibition, 48 h
Remember, log10 of TGI, in µM.

Below, each entry is followed by its recorded log10 TGI result.
- COc1cc2c3c(n(C)c(=O)c2cc1OC)-c1cc2c(cc1/C3=C\CCCCl)OCO2: 1.61
- C=CC(=O)N1C/C(=C\c2ccc(OC)cc2)C(=O)/C(=C/c2ccc(OC)cc2)C1: 0.68
- Cc1cc(C)[n+]2c(c1)C=CC2: 1.93

Asked: Could you share which log10 TGI value was measured for CCN(CC)CCOc1nc2ccccc2c2c1-c1ccc(OC)cc1C2=O ?
Given back: 0.61

----------
A collection of compounds and their measured GI50
# Test system: ACHN renal
# MEASUREMENT PROTOCOL: NCI tumour cell line growth inhibition, 48 h

- CCCCCCC(=O)NC1=C(N2CC2)C(=O)C(NC(=O)CCCCCC)=C(N2CC2)C1=O: 2.76 µM
- NC1CC(=O)c2c(-c3cccs3)sc(-c3cccs3)c21 (centres undefined): 10 µM
- CC(=O)/C=C(/C)[O-].CC(=O)/C=C(/C)[O-].CC(=O)[CH-]C(C)=O.CC(=O)[CH-]C(C)=O.[Zr+4]: > 100 µM
- COc1ccc(C(=O)/C=C/c2ccc(OCc3cccc(C(F)(F)F)c3)c(OC)c2)cc1OC: 52.8 µM
- O=C1C=CC2C3C(=O)N(c4ccccc4)C(=O)C3C1N2Cc1ccccc1 (centres undefined): 3.36 µM

Asked: // fetch ACHN renal GI50 for Nc1ccc(C#Cc2ccccc2C#CCCCCO)cc1
Given back: 14.5 µM

Asked: // fetch ACHN renal GI50 for COc1cccc(N2CC(O)=C(c3nc4ccccc4s3)C2=N)c1
Given back: 0.307 µM

Asked: // fetch ACHN renal GI50 for CN1C(=O)N(C)C2C1NC(=S)N2/N=C/C=C/c1ccccc1[N+](=O)[O-] (centres undefined)
Given back: 0.988 µM

Asked: // fetch ACHN renal GI50 for Cc1nnc(N/N=C/c2ccc([N+](=O)[O-])o2)[nH]c1=O
Given back: 0.603 µM

Asked: // fetch ACHN renal GI50 for CC(C)[C@@H](C(=O)O[C@@H]1/C=C/C(=O)O[C@@H](C)CCC/C=C/[C@@H]2C[C@H](O)C[C@H]21)N(C)C
Given back: 38.4 µM

Asked: // fetch ACHN renal GI50 for COc1ccc2c3ccnc(C(F)(F)F)c3n(CCCCN)c2c1
Given back: 4.58 µM

Asked: // fetch ACHN renal GI50 for CCN(CC)CCOc1nc2ccccc2c2c1-c1ccc(OC)cc1C2=O
Given back: 0.364 µM

Asked: // fetch ACHN renal GI50 for CCN1CCN(C(=O)[C@]23CC[C@@H](C)[C@H](C)[C@@H]2C2=CC[C@@H]4[C@@]5(C)CCC(=O)C(C)(C)[C@@H]5CC[C@@]4(C)[C@]2(C)CC3)CC1
Given back: 1.33 µM

Asked: // fetch ACHN renal GI50 for CN(C(=O)C(C)(C)C)c1ccccc1I(=O)=O
Given back: > 100 µM
